Each record here notes measured Ki.
- MEASURED ON: NanoLuc-hACKR3 (Homo sapiens, UniProt P25106)
- Construct: membrane preparation)
- Sequence (P25106 whole entry): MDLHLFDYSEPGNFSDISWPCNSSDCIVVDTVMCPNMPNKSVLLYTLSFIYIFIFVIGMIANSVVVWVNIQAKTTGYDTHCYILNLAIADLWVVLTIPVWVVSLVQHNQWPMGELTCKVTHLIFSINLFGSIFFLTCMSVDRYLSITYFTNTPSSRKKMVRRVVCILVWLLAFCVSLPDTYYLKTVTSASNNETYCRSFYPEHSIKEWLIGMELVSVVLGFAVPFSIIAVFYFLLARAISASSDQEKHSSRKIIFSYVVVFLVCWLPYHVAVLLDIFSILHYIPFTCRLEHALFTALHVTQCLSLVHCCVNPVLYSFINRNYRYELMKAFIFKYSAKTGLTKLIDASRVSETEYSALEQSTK
- EXPERIMENTAL DETAILS: NanoBRET binding study (displacement of fluorescently labelled CXCL12)
- EXPERIMENTAL SETUP: displacement of 0.3 nM CXCL12-AF647; membranes of HEK293T cells expressing NanoLuc-ACKR3; 1 hour incubation; read-out: Affinity

Request: Request - read-out Ki | tested on NanoLuc-hACKR3 (Homo sapiens, UniProt P25106) | compound O=C(NCC1CCN(Cc2cccnc2)CC1)c1cc(-c2ccc(F)cc2F)on1 [Molecule 29]
Response: 100 to 1000 nM

Request: Request - read-out Ki | tested on NanoLuc-hACKR3 (Homo sapiens, UniProt P25106) | compound O=C(NCC1CCN(C/C=C/c2ccccc2)CC1)c1cnn(-c2ccc(F)cc2F)n1 [Molecule 68]
Response: 1000 to 10000 nM
